# measured_on: T1, PSMA Fab (006 PSMA Fab) (Fab biotinylated for capture on neutravidin plates (site not stated))
# T1 construct: also called Anti-PSMA Fab; anti-PSMA Fab
# experiment_description: phage ELISA: clonal phage supernatant on biotinylated PSMA Fab captured on neutravidin plate, wells pre-incubated with PSMA antigen as competitor, anti-M13-HRP detection
Consider the cut-off 0.08. If the recorded Phage binding ELISA signal, Anti-PSMA Fab in presence of PSMA is strictly smaller, the label is Condition met; if not, the label is Condition not met.

Request: Hi there! Is Phage binding ELISA signal, Anti-PSMA Fab in presence of PSMA for HLMACKPAWMCLGL [Phage-3079 (peptide-180 library clone)] below 0.08, do you know?
Result: Condition not met

Request: In plain terms, does DGPLCVPQWMCLWL [Phage-3082 (peptide-180 library clone)] come in under 0.08 for Phage binding ELISA signal, Anti-PSMA Fab in presence of PSMA?
Result: Condition met

Request: Quick check: does FWAQCVPPWMCSGF [Phage-3086 (peptide-180 library clone)] have Phage binding ELISA signal, Anti-PSMA Fab in presence of PSMA under 0.08?
Result: Condition not met

Request: Please let me know if VDLICRPAWMCSGF [Phage-3087 (peptide-180 library clone)] shows Phage binding ELISA signal, Anti-PSMA Fab in presence of PSMA below 0.08.
Result: Condition met

Request: Take the binder TYMMCVPEWMCQGF [Phage-3078 (peptide-180 library clone)] and say whether its Phage binding ELISA signal, Anti-PSMA Fab in presence of PSMA is less than 0.08.
Result: Condition not met

Request: Here's an entry: VNHLCKPTWMCAGF [Phage-3077 (peptide-180 library clone)] . Is its Phage binding ELISA signal, Anti-PSMA Fab in presence of PSMA below 0.08?
Result: Condition met

Request: Regarding YEQLCKPLWMCQGF [Phage-3075 (peptide-180 library clone)] , kindly confirm whether its Phage binding ELISA signal, Anti-PSMA Fab in presence of PSMA is beneath 0.08.
Result: Condition met

Request: Consider the binder DEWICRPAWMCQGF [Phage-3076 (peptide-180 library clone)] . Is its Phage binding ELISA signal, Anti-PSMA Fab in presence of PSMA strictly less than 0.08?
Result: Condition met
